# Species: Rattus norvegicus
# Assay Overview: Selectivity ratio of Ki for rat sigma 2 opioid receptor to Ki for rat sigma 1 opioid receptor
Classify: yes (1) when Ratio Ki is strictly less than 40; no (0) when Ratio Ki is not.

>  <Compound Smiles>
N#CC1(c2ccccc2)CCN(CCc2ccccc2)CC1

>  <Group>
yes (1)

$$$$
>  <Compound Smiles>
CN1CCC(C#N)(c2ccccc2)CC1

>  <Group>
yes (1)

$$$$
>  <Compound Smiles>
N#CC1(c2ccccc2)CCN(Cc2ccccc2)CC1

>  <Group>
no (0)

$$$$
>  <Compound Smiles>
CCCN1CCC(C#N)(c2ccccc2)CC1

>  <Group>
no (0)

$$$$
>  <Compound Smiles>
CC(C)CN1CCC(C#N)(c2ccccc2)CC1

>  <Group>
no (0)

$$$$

Let's switch to this compound now.
(Q) I wonder whether N#CC1(c2ccccc2)CCN(CCCCc2ccccc2)CC1 has Ratio Ki below 40. Can you tell?
(A) yes (1)

###

# Assay Overview: Displacement of [3H]ditolylguanidine from sigma 2 opioid receptor in rat brain cerebellum
# Assay type: tissue-based
Assay Metric: pKi
Numbers only, as −log10 of the molar value.

>  <Compound Smiles>
N#CC1(c2ccccc2)CCN(CCCCc2ccccc2)CC1

>  <pKi>
5.88

$$$$

Please give pKi, item by item, for the list that follows.
1. N#CC1(c2ccccc2)CCN(Cc2ccccc2)CC1
2. CCCN1CCC(C#N)(c2ccccc2)CC1
3. c1ccc(CCN2CCCCC2)cc1
4. CC(C)CN1CCC(C#N)(c2ccccc2)CC1
5. CN1CCC(C#N)(c2ccccc2)CC1
6. c1ccc(CCN2CCN(c3ccccn3)CC2)cc1
7. C=C(C)CN1CCC(C#N)(c2ccccc2)CC1
8. N#CC1(c2ccccc2)CCN(CCc2ccccc2)CC1

(A)
6.18
6.84
6.86
7.20
5.67
6.77
6.32
6.93

Give measured pKi for every item shown.
1. C=CCN1CCC(C#N)(c2ccccc2)CC1
2. N#CC1(c2ccccc2)CCN(CCCc2ccccc2)CC1

(A)
1: 6.18; 2: 7.34

###

Please respond with reported pKi for every item in the list.
# Target Or System: Delta-type opioid receptor (Homo sapiens)
# Sequence (P41143 whole entry): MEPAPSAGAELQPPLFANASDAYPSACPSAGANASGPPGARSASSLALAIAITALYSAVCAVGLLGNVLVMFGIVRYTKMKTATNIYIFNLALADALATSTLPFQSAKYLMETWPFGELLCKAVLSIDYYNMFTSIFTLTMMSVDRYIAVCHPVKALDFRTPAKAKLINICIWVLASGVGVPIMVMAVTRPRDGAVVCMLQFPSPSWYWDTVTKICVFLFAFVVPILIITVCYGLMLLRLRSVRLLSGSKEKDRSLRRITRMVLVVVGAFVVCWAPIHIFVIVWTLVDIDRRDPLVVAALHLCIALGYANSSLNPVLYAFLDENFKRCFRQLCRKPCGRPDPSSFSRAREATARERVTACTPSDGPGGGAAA
# Assay Overview: Binding affinity to delta opioid receptor
pKi: −log10 of the molar value.

>  <Compound Smiles>
N#CC1(c2ccccc2)CCN(Cc2ccccc2)CC1

>  <Target Or System>
Delta-type opioid receptor (Homo sapiens)

>  <pKi>
< 5.00

$$$$
>  <Compound Smiles>
C=C(C)CN1CCC(C#N)(c2ccccc2)CC1

>  <Target Or System>
Delta-type opioid receptor (Homo sapiens)

>  <pKi>
5.30

$$$$
>  <Compound Smiles>
N#CC1(c2ccccc2)CCN(CCCCc2ccccc2)CC1

>  <Target Or System>
Delta-type opioid receptor (Homo sapiens)

>  <pKi>
< 5.00

$$$$
>  <Compound Smiles>
CN1CCC(C#N)(c2ccccc2)CC1

>  <Target Or System>
Delta-type opioid receptor (Homo sapiens)

>  <pKi>
< 5.00

$$$$

Then there is this molecule:
(Q) pKi of C=CCN1CCC(C#N)(c2ccccc2)CC1 on Delta-type opioid receptor (Homo sapiens)?
(A) < 5.00

###

# Target Or System: Sigma non-opioid intracellular receptor 1 (Rattus norvegicus, UniProt Q9R0C9)
# Sequence (Q9R0C9 whole entry): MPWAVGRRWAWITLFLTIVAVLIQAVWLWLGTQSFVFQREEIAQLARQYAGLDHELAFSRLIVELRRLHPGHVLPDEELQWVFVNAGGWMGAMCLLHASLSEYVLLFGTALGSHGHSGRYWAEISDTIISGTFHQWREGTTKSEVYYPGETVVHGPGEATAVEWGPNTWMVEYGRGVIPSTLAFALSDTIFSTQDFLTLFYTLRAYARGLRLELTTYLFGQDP
# Assay Overview: Displacement of [3H](+)-pentazocine from sigma 1 opioid receptor in rat brain cerebellum
For each record, write down the corresponding pKi.
One number for each entry, as −log10 of the molar value.

Completed entries (count: 5):
>  <Compound>
N#CC1(c2ccccc2)CCN(Cc2ccccc2)CC1

>  <Assay Metric>
pKi

>  <Quantitative Readout>
9.39

$$$$
>  <Compound>
CCCN1CCC(C#N)(c2ccccc2)CC1

>  <Assay Metric>
pKi

>  <Quantitative Readout>
8.77

$$$$
>  <Compound>
N#CC1(c2ccccc2)CCN(CCCCc2ccccc2)CC1

>  <Assay Metric>
pKi

>  <Quantitative Readout>
7.31

$$$$
>  <Compound>
N#CC1(c2ccccc2)CCN(CCc2ccccc2)CC1

>  <Assay Metric>
pKi

>  <Quantitative Readout>
8.48

$$$$
>  <Compound>
N#CC1(c2ccccc2)CCN(CCCc2ccccc2)CC1

>  <Assay Metric>
pKi

>  <Quantitative Readout>
9.42

$$$$

Dear reader, for each entry below, please note its pKi.
1. C=C(C)CN1CCC(C#N)(c2ccccc2)CC1
2. c1ccc(CCN2CCN(c3ccccn3)CC2)cc1

(A)
1. 8.43
2. 6.49
